- Tgt: T1, human melanocortin 4 receptor (human, UniProt P32245 1-332)
- T1 construct: whole, on cells; cAMP assay on whole BHK cells; also called MC4R; human MC4 receptor
- Experimental details: competition with 125-NDP-α-MSH, BHK human MC4R membranes
Positions of bridges follow the written chain, without caps; N, C: chain ends. Non-standard residues stand in square brackets, D forms with d. Pip = O=C(O)[C@@H]1CCCCN1; Thz = O=C(O)[C@@H]1CSCN1; Dab = NCC[C@H](N)C(=O)O; Aib = CC(C)(N)C(=O)O
// classify: if (Ki < 0.6 nM) fulfilled else not fulfilled

See these solved cases before continuing.
{"columns": ["Binder", "Group label"],
 "data": [
  ["cyclo(C[Thz]H[dF]HWCAEDAW) (disulfide 1-7; SMILES C[C@@H]1NC(=O)[C@H](CC(=O)O)NC(=O)[C@H](CCC(=O)O)NC(=O)[C@H](C)NC(=O)[C@@H]2CSSC[C@H](NC(=O)[C@H](Cc3c[nH]c4ccccc34)NC1=O)C(=O)N1CSC[C@H]1C(=O)N[C@@H](Cc1c[nH]cn1)C(=O)N[C@H](Cc1ccccc1)C(=O)N[C@@H](Cc1c[nH]cn1)C(=O)N[C@@H](Cc1c[nH]c3ccccc13)C(=O)N2, also called c[c[Cys-THAZ-His-D-Phe-His-Trp-Cys]-Ala-Glu-Asp-Ala-Trp]) [Chem. 108]", "not fulfilled"],
  ["cyclo(CAH[dF][Dab]WCAH[dF][Dab]W) (disulfide 1-7; SMILES C[C@@H]1NC(=O)[C@@H]2CSSC[C@H](NC(=O)[C@H](Cc3c[nH]c4ccccc34)NC(=O)[C@H](CCN)NC(=O)[C@@H](Cc3ccccc3)NC(=O)[C@H](Cc3c[nH]cn3)NC1=O)C(=O)N[C@@H](C)C(=O)N[C@@H](Cc1c[nH]cn1)C(=O)N[C@H](Cc1ccccc1)C(=O)N[C@@H](CCN)C(=O)N[C@@H](Cc1c[nH]c3ccccc13)C(=O)N2, also called c[c[Cys-Ala-His-D-Phe-Dab-Trp-Cys]-Ala-His-D-Phe-Dab-Trp]) [Chem. 17]", "not fulfilled"],
  ["cyclo(C[Aib]H[dF]KWC[Aib]H[dF]KW) (disulfide 1-7; SMILES CC1(C)NC(=O)[C@@H]2CSSC[C@H](NC(=O)[C@H](Cc3c[nH]c4ccccc34)NC(=O)[C@H](CCCCN)NC(=O)[C@@H](Cc3ccccc3)NC(=O)[C@H](Cc3c[nH]cn3)NC1=O)C(=O)NC(C)(C)C(=O)N[C@@H](Cc1c[nH]cn1)C(=O)N[C@H](Cc1ccccc1)C(=O)N[C@@H](CCCCN)C(=O)N[C@@H](Cc1c[nH]c3ccccc13)C(=O)N2, also called c[c[Cys-Aib-His-D-Phe-Lys-Trp-Cys]-Aib-His-D-Phe-Lys-Trp]) [Chem. 40]", "fulfilled"],
  ["cyclo(C[Thz]H[dF]HWCADEAW) (disulfide 1-7; SMILES C[C@@H]1NC(=O)[C@H](CCC(=O)O)NC(=O)[C@H](CC(=O)O)NC(=O)[C@H](C)NC(=O)[C@@H]2CSSC[C@H](NC(=O)[C@H](Cc3c[nH]c4ccccc34)NC1=O)C(=O)N1CSC[C@H]1C(=O)N[C@@H](Cc1c[nH]cn1)C(=O)N[C@H](Cc1ccccc1)C(=O)N[C@@H](Cc1c[nH]cn1)C(=O)N[C@@H](Cc1c[nH]c3ccccc13)C(=O)N2, also called c[c[Cys-THAZ-His-D-Phe-His-Trp-Cys]-Ala-Asp-Glu-Ala-Trp]) [Chem. 107]", "not fulfilled"]
]}

# ---- query binder ----
Below 0.6 nM on Ki? Entry cyclo(C[Pip]H[dF]HWCAKKKW) (disulfide 1-7, also called c[c[Cys-PIP-His-D-Phe-His-Trp-Cys]-Ala-Lys-Lys-Lys-Trp]) [Chem. 83]
fulfilled
